# Test system: 521955-158-R6-J3-PDC complex spheroid growth, % test/control
# method.description: Anticancer human tumor 521955-158-R6-J3-PDC patient-derived pancreatic carcinoma cell line growth inhibition [Asc]
# test.conditions: second compound 1 µM; first compound 0.00316 µM; hits give low values
# reported viability, T/C; entries follow
Give your result in % as a bare value.

Answered examples (3):
1) Cn1ncnc1[C@H]1c2n[nH]c(=O)c3cc(F)cc(c23)N[C@@H]1c1ccc(F)cc1 + Cc1c(S(C)(=O)=O)c(-c2cc(F)cc(N3CCN(c4ccc(NS(=O)(=O)c5ccc(NC(CCN6CCC(C(=O)OCCCP(=O)(O)O)CC6)CSc6ccccc6)c(S(=O)(=O)C(F)(F)F)c5)cc4)CC3)c2)c(-c2ccc(Cl)cc2)n1C(C)C | 41.4
2) O=C(c1ccc(F)c(F)c1Nc1ccc(I)cc1F)N1CC(O)([C@@H]2CCCCN2)C1 + Cc1c(S(C)(=O)=O)c(-c2cc(F)cc(N3CCN(c4ccc(NS(=O)(=O)c5ccc(NC(CCN6CCC(C(=O)OCCCP(=O)(O)O)CC6)CSc6ccccc6)c(S(=O)(=O)C(F)(F)F)c5)cc4)CC3)c2)c(-c2ccc(Cl)cc2)n1C(C)C | 35.3
3) CCN1CCN(Cc2ccc(Nc3ncc(F)c(-c4cc(F)c5nc(C)n(C(C)C)c5c4)n3)nc2)CC1 + Cc1c(S(C)(=O)=O)c(-c2cc(F)cc(N3CCN(c4ccc(NS(=O)(=O)c5ccc(NC(CCN6CCC(C(=O)OCCCP(=O)(O)O)CC6)CSc6ccccc6)c(S(=O)(=O)C(F)(F)F)c5)cc4)CC3)c2)c(-c2ccc(Cl)cc2)n1C(C)C | 35.6

Could you now look at the following compound, please?
Look up viability, T/C: CNC(C)C(=O)NC1CN(S(=O)(=O)c2cccc(S(=O)(=O)N3CCC4CCC(C(=O)NC(c5ccccc5)c5ccccc5)N4C(=O)C(NC(=O)C(C)NC)C3)c2)CCC2CCC(C(=O)NC(c3ccccc3)c3ccccc3)N2C1=O (centres undefined) + Cc1c(S(C)(=O)=O)c(-c2cc(F)cc(N3CCN(c4ccc(NS(=O)(=O)c5ccc(NC(CCN6CCC(C(=O)OCCCP(=O)(O)O)CC6)CSc6ccccc6)c(S(=O)(=O)C(F)(F)F)c5)cc4)CC3)c2)c(-c2ccc(Cl)cc2)n1C(C)C 31.6

###

# System: 521955-158-R6-J3-PDC complex spheroid growth, % test/control
# method.description: Anticancer human tumor 521955-158-R6-J3-PDC cell line growth inhibition [Asc]; active means viability on the fitted dose curve at most 10% of control; inactive means the rest;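 note: spheroids exposed to compounds for 7 days; 100% = DMSO vehicle control wells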
# test.conditions: second compound 3.16 µM; first compound 1 µM
# Excerpt: Multicellular complex tumor spheroid response to apoptosis pathway targeting inhibitors Alrizomadlin, Pelcitoclax, and Dasminapant in combination with a variety of drugs and investigational agents in selected tumor cell lines […] Compounds. […] If the clinical Cmax for an agent had not been determined, the highest concentration tested was 10 microM. […]
Permitted responses: active, inactive

See these solved cases before continuing.
1) COc1c(OCCCN2CCOCC2)ccc2c3n(c(=NC(=O)c4cnc(N)nc4)nc12)CCN3 + Cc1c(S(C)(=O)=O)c(-c2cc(F)cc(N3CCN(c4ccc(NS(=O)(=O)c5ccc(NC(CCN6CCC(C(=O)OCCCP(=O)(O)O)CC6)CSc6ccccc6)c(S(=O)(=O)C(F)(F)F)c5)cc4)CC3)c2)c(-c2ccc(Cl)cc2)n1C(C)C | active
2) O=C(c1ccc(F)c(F)c1Nc1ccc(I)cc1F)N1CC(O)([C@@H]2CCCCN2)C1 + Cc1c(S(C)(=O)=O)c(-c2cc(F)cc(N3CCN(c4ccc(NS(=O)(=O)c5ccc(NC(CCN6CCC(C(=O)OCCCP(=O)(O)O)CC6)CSc6ccccc6)c(S(=O)(=O)C(F)(F)F)c5)cc4)CC3)c2)c(-c2ccc(Cl)cc2)n1C(C)C | active

Please turn your attention to the following entry.
Please let me know the test result on file for CCN1CCN(Cc2ccc(Nc3ncc(F)c(-c4cc(F)c5nc(C)n(C(C)C)c5c4)n3)nc2)CC1 + Cc1c(S(C)(=O)=O)c(-c2cc(F)cc(N3CCN(c4ccc(NS(=O)(=O)c5ccc(NC(CCN6CCC(C(=O)OCCCP(=O)(O)O)CC6)CSc6ccccc6)c(S(=O)(=O)C(F)(F)F)c5)cc4)CC3)c2)c(-c2ccc(Cl)cc2)n1C(C)C . inactive

###

# Test system: 521955-158-R6-J3-PDC complex spheroid growth, % test/control
# method.description: Anticancer human tumor 521955-158-R6-J3-PDC cell line growth inhibition [Asc];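 note: spheroids exposed to compounds for 7 days; 100% = DMSO vehicle control wells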
# test.conditions: second compound 0.0316 µM; first compound 0.3 µM; hits give low values
assay.readout: viability, T/C (%)
Give your result in % as a bare value.

1) Cc1nc(N2CCC3(CC2)COC(C)C3N)c(CO)nc1Sc1ccnc(N)c1Cl (stereo unspecified) + CNC(C)C(=O)NC1CN(S(=O)(=O)c2cccc(S(=O)(=O)N3CCC4CCC(C(=O)NC(c5ccccc5)c5ccccc5)N4C(=O)C(NC(=O)C(C)NC)C3)c2)CCC2CCC(C(=O)NC(c3ccccc3)c3ccccc3)N2C1=O | 73.4
2) NC(=O)C(=Cn1cnc(-c2cc(C(F)(F)F)cc(C(F)(F)F)c2)n1)c1cncnc1 + CNC(C)C(=O)NC1CN(S(=O)(=O)c2cccc(S(=O)(=O)N3CCC4CCC(C(=O)NC(c5ccccc5)c5ccccc5)N4C(=O)C(NC(=O)C(C)NC)C3)c2)CCC2CCC(C(=O)NC(c3ccccc3)c3ccccc3)N2C1=O | 66.6
3) NC(=O)C(=Cn1cnc(-c2cc(C(F)(F)F)cc(C(F)(F)F)c2)n1)c1cncnc1 + Cc1c(S(C)(=O)=O)c(-c2cc(F)cc(N3CCN(c4ccc(NS(=O)(=O)c5ccc(NC(CCN6CCC(C(=O)OCCCP(=O)(O)O)CC6)CSc6ccccc6)c(S(=O)(=O)C(F)(F)F)c5)cc4)CC3)c2)c(-c2ccc(Cl)cc2)n1C(C)C | 108
4) CCN1C(C(=O)NC23CCC(C(=O)O)(CC2)CC3)C(c2cccc(Cl)c2F)C2(C(=O)Nc3cc(Cl)ccc32)C12CCCCC2 (stereo unspecified) + Cc1c(S(C)(=O)=O)c(-c2cc(F)cc(N3CCN(c4ccc(NS(=O)(=O)c5ccc(NC(CCN6CCC(C(=O)OCCCP(=O)(O)O)CC6)CSc6ccccc6)c(S(=O)(=O)C(F)(F)F)c5)cc4)CC3)c2)c(-c2ccc(Cl)cc2)n1C(C)C | 70.7
5) CCN1C(C(=O)NC23CCC(C(=O)O)(CC2)CC3)C(c2cccc(Cl)c2F)C2(C(=O)Nc3cc(Cl)ccc32)C12CCCCC2 (stereo unspecified) + CNC(C)C(=O)NC1CN(S(=O)(=O)c2cccc(S(=O)(=O)N3CCC4CCC(C(=O)NC(c5ccccc5)c5ccccc5)N4C(=O)C(NC(=O)C(C)NC)C3)c2)CCC2CCC(C(=O)NC(c3ccccc3)c3ccccc3)N2C1=O | 96.3

Could you now look at the following molecule, please?
Look up viability, T/C: Cc1nc(N2CCC3(CC2)COC(C)C3N)c(CO)nc1Sc1ccnc(N)c1Cl (stereo unspecified) + Cc1c(S(C)(=O)=O)c(-c2cc(F)cc(N3CCN(c4ccc(NS(=O)(=O)c5ccc(NC(CCN6CCC(C(=O)OCCCP(=O)(O)O)CC6)CSc6ccccc6)c(S(=O)(=O)C(F)(F)F)c5)cc4)CC3)c2)c(-c2ccc(Cl)cc2)n1C(C)C 61.2

###

# System: 521955-158-R6-J3-PDC complex spheroid growth, % test/control
# method.description: Anticancer human tumor 521955-158-R6-J3-PDC cell line growth inhibition [Asc];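 note: spheroids exposed to compounds for 7 days; 100% = DMSO vehicle control wells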
# test.conditions: second compound 0.03 µM; first compound 1 µM; hits give low values
assay.readout: viability, T/C

Answered examples (2):
1. C#Cc1c(F)ccc2cc(O)cc(-c3ncc4c(N5CC6CCC(C5)N6)nc(OCC56CCCN5CC(F)C6)nc4c3F)c12 (stereo not drawn) + CCN1C(C(=O)NC23CCC(C(=O)O)(CC2)CC3)C(c2cccc(Cl)c2F)C2(C(=O)Nc3cc(Cl)ccc32)C12CCCCC2 | 45.4%
2. CNC(C)C(=O)NC1CN(S(=O)(=O)c2cccc(S(=O)(=O)N3CCC4CCC(C(=O)NC(c5ccccc5)c5ccccc5)N4C(=O)C(NC(=O)C(C)NC)C3)c2)CCC2CCC(C(=O)NC(c3ccccc3)c3ccccc3)N2C1=O (stereo not drawn) + CCN1C(C(=O)NC23CCC(C(=O)O)(CC2)CC3)C(c2cccc(Cl)c2F)C2(C(=O)Nc3cc(Cl)ccc32)C12CCCCC2 | 81.5%

Could you now look at the following compound, please?
Look up viability, T/C: C=C(F)C(=O)N1CCN(c2nc(OCC3CCCN3C)nc3c2CCN(c2cccc4cccc(Cl)c24)C3)CC1CC#N (stereo not drawn) + CCN1C(C(=O)NC23CCC(C(=O)O)(CC2)CC3)C(c2cccc(Cl)c2F)C2(C(=O)Nc3cc(Cl)ccc32)C12CCCCC2 91.7%

###

# Test system: 521955-158-R6-J3-PDC complex spheroid growth, % test/control
# method.description: Anticancer human tumor 521955-158-R6-J3-PDC cell line growth inhibition [Asc];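 note: spheroids exposed to compounds for 7 days; 100% = DMSO vehicle control wells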
# test.conditions: second compound 1 µM; first compound 0.0316 µM; hits give low values
# reported viability, T/C; entries follow
Give your result in % as a bare value.

1. COc1c(OCCCN2CCOCC2)ccc2c3n(c(=NC(=O)c4cnc(N)nc4)nc12)CCN3 + Cc1c(S(C)(=O)=O)c(-c2cc(F)cc(N3CCN(c4ccc(NS(=O)(=O)c5ccc(NC(CCN6CCC(C(=O)OCCCP(=O)(O)O)CC6)CSc6ccccc6)c(S(=O)(=O)C(F)(F)F)c5)cc4)CC3)c2)c(-c2ccc(Cl)cc2)n1C(C)C | 33.5
2. O=C(c1ccc(F)c(F)c1Nc1ccc(I)cc1F)N1CC(O)([C@@H]2CCCCN2)C1 + Cc1c(S(C)(=O)=O)c(-c2cc(F)cc(N3CCN(c4ccc(NS(=O)(=O)c5ccc(NC(CCN6CCC(C(=O)OCCCP(=O)(O)O)CC6)CSc6ccccc6)c(S(=O)(=O)C(F)(F)F)c5)cc4)CC3)c2)c(-c2ccc(Cl)cc2)n1C(C)C | 29.7
3. O=C(c1cc(Cc2n[nH]c(=O)c3ccccc23)ccc1F)N1CCN(C(=O)C2CC2)CC1 + CNC(C)C(=O)NC1CN(S(=O)(=O)c2cccc(S(=O)(=O)N3CCC4CCC(C(=O)NC(c5ccccc5)c5ccccc5)N4C(=O)C(NC(=O)C(C)NC)C3)c2)CCC2CCC(C(=O)NC(c3ccccc3)c3ccccc3)N2C1=O | 93.3
4. O=C(c1cc(Cc2n[nH]c(=O)c3ccccc23)ccc1F)N1CCN(C(=O)C2CC2)CC1 + Cc1c(S(C)(=O)=O)c(-c2cc(F)cc(N3CCN(c4ccc(NS(=O)(=O)c5ccc(NC(CCN6CCC(C(=O)OCCCP(=O)(O)O)CC6)CSc6ccccc6)c(S(=O)(=O)C(F)(F)F)c5)cc4)CC3)c2)c(-c2ccc(Cl)cc2)n1C(C)C | 41
5. CNC(C)C(=O)NC1CN(S(=O)(=O)c2cccc(S(=O)(=O)N3CCC4CCC(C(=O)NC(c5ccccc5)c5ccccc5)N4C(=O)C(NC(=O)C(C)NC)C3)c2)CCC2CCC(C(=O)NC(c3ccccc3)c3ccccc3)N2C1=O (configuration not stated) + Cc1c(S(C)(=O)=O)c(-c2cc(F)cc(N3CCN(c4ccc(NS(=O)(=O)c5ccc(NC(CCN6CCC(C(=O)OCCCP(=O)(O)O)CC6)CSc6ccccc6)c(S(=O)(=O)C(F)(F)F)c5)cc4)CC3)c2)c(-c2ccc(Cl)cc2)n1C(C)C | 29.6

// fetch 521955-158-R6-J3-PDC complex spheroid growth, % test/control viability, T/C for O=C(c1ccc(F)c(F)c1Nc1ccc(I)cc1F)N1CC(O)([C@@H]2CCCCN2)C1 + CNC(C)C(=O)NC1CN(S(=O)(=O)c2cccc(S(=O)(=O)N3CCC4CCC(C(=O)NC(c5ccccc5)c5ccccc5)N4C(=O)C(NC(=O)C(C)NC)C3)c2)CCC2CCC(C(=O)NC(c3ccccc3)c3ccccc3)N2C1=O 95.4

And the next one, C=CC(=O)N1CCN(c2nc(=O)n(-c3c(C)ccnc3C(C)C)c3nc(-c4c(O)cccc4F)c(F)cc23)C(C)C1 (configuration not stated) + CNC(C)C(=O)NC1CN(S(=O)(=O)c2cccc(S(=O)(=O)N3CCC4CCC(C(=O)NC(c5ccccc5)c5ccccc5)N4C(=O)C(NC(=O)C(C)NC)C3)c2)CCC2CCC(C(=O)NC(c3ccccc3)c3ccccc3)N2C1=O ? 81.4
